Could you please report measured Zone of Inhibition (mm) for the items listed next?
test system: Staphylococcus aureus (ATCC strain #6538); assay: modified Kirby Bauer susceptibility model, zone of inhibition around antibiotic containing HA disk; assay type: cell-based; details: antibiotic absorbed into precipitated crystalline HA coating; Mueller-Hinton agar, 24 hr at 37° C.
Expressed in mm, but write only the number.

// recorded Zone of Inhibition (mm) for NC[C@H]1O[C@H](O[C@H]2[C@H](O)[C@@H](O[C@H]3O[C@H](CO)[C@@H](O)[C@H](N)[C@H]3O)[C@H](N)C[C@@H]2N)[C@H](N)C[C@@H]1O : 10

// recorded Zone of Inhibition (mm) for CN[C@H](CC(C)C)C(=O)N[C@H]1C(=O)N[C@@H](CC(N)=O)C(=O)N[C@H]2C(=O)N[C@H]3C(=O)N[C@H](C(=O)N[C@H](C(=O)O)c4cc(O)cc(O)c4-c4cc3ccc4O)[C@H](O)c3ccc(c(Cl)c3)Oc3cc2cc(c3O[C@@H]2O[C@H](CO)[C@@H](O)[C@H](O)[C@H]2O[C@H]2C[C@](C)(N)[C@H](O)[C@H](C)O2)Oc2ccc(cc2Cl)[C@H]1O : 10.5

Recorded values, source patent US20050169964A1.
